Ref: paper PMC8982737

- Assayed System: SARS-CoV-2 3CL protease (Severe acute respiratory syndrome coronavirus 2)
// reported pIC50 per item
The meaning of pIC50 here: minus log10 of the concentration in molar units.

{"Chem Smiles": "CNC(=O)Cn1c(=O)[nH]/c(=N\\c2ccc(OC)cc2)n(Cc2cc(F)c(F)c(F)c2)c1=O", "pIC50": 5.55}
{"Chem Smiles": "CNC(=O)Cn1c(=O)[nH]/c(=N\\c2ccc(OC(F)F)cc2C)n(Cc2cc(F)c(F)c(F)c2)c1=O", "pIC50": 5.07}
{"Chem Smiles": "CNC(=O)Cn1c(=O)[nH]/c(=N\\c2ccc(OC)cc2C)n(Cc2cc(F)c(F)c(F)c2)c1=O", "pIC50": 5.72}

Now look at this one.
-- ask Request - read-out pIC50 | tested on SARS-CoV-2 3CL protease (Severe acute respiratory syndrome coronavirus 2) | compound CNC(=O)Cn1c(=O)[nH]/c(=N\c2cc3sc(C)nc3cc2C)n(Cc2ccccc2)c1=O
-- reply 4.24
